# apparent KD of MS2 coat protein per record follows
- Test system: MS2 coat protein
- experimentNotes: apparent KD of MS2 coat protein; designed switch direction (-1 OFF switch, 1 ON switch): -1; higher = weaker reporter binding
- measurementContext: input ligand: FMN 200 uM
The figure you give is taken to be in nM; do not add the unit.

Task: # get_value(readout='apparent KD of MS2 coat protein', item= AGUGUGUGGCAGGAUAUGCGAUUUAUAGGUGAAGCAGAAGGGUCUACAUGAGGAUCACCCAUGUGUGCGGUUGA [Ex6 #21] (Eterna round: R97, puzzle: Exclusion 6) )
Result: 318

Task: # get_value(readout='apparent KD of MS2 coat protein', item= CCCGGGUUAGGAUAUUCCUCGUGCAGCUGACAGCCACGGGAGAAGAAGGGACAUGAGGAUCACCCAUGUGAAUA [Eternabot (L2) Solution 47] (Eterna round: R97, puzzle: Exclusion 4) )
Result: 42

Task: # get_value(readout='apparent KD of MS2 coat protein', item= GACCAGGUAGGAUAUGCUGGGUCGGACUUGAGGAUCACCCAAGUGGCCAAAGUGCGUCCCGCAGAAGGGCCGAAAA [Inanorxeti] (Eterna round: R97, puzzle: Exclusion 5) )
Result: 81.6

Task: # get_value(readout='apparent KD of MS2 coat protein', item= GAGAUACAUGAGGAUCACCCAUGUGAGGAUAUGAGUCAGUCACGGUGACGUGGCUGACUCAGAAGGCACAAAGG [Mat - Exclusion 1 - JL Mod - D35] (Eterna round: R97, puzzle: Exclusion 1) )
Result: 88.9

Task: # get_value(readout='apparent KD of MS2 coat protein', item= UGGAGGUGAGGAUAUACAUGAGGAUCACCCAUGUGGUGAAGUAGAGAGUAGUGGAGUGGUAGAAGGCACGAGUA [Version #1] (Eterna round: R97, puzzle: Exclusion 3) )
Result: 702

Task: # get_value(readout='apparent KD of MS2 coat protein', item= UGCAGACGAGGAUAUAAAUGAUAUAACAUGAGGAUCACCCAUGUACGAUCGAAUGAUCGUUUAGAAGGCGUCUGCA [E5/11-A2] (Eterna round: R97, puzzle: Exclusion 5) )
Result: 18.5

Task: # get_value(readout='apparent KD of MS2 coat protein', item= AAUAAUGAACGAGCUUUUUACAUGAGGAUCACCCAUGUCCUCUGCUCGUCUUGUCUUGGGCUUUUUUUGGGUUCGGG [-22.1, -44.7 kcal, A 17%] (Eterna round: R97, puzzle: Sensor, turn-off variant 1) )
Result: 331

Task: # get_value(readout='apparent KD of MS2 coat protein', item= AAGGGUACUUUCGGAACGACAUGAGGAUCACCCAUGUAUACUGAGGAUAUCCACUACUAAGGACGGGAGAAGGCAGUGUACUGU [Ex NG3 #79] (Eterna round: R96, puzzle: Exclusion NG 3) )
Result: 26.1

Task: # get_value(readout='apparent KD of MS2 coat protein', item= GCGACUGGAGGAUAUACAUGAGGAUCACCCAUGUGAUCUAAAAGGGUCUUAUGCCGGUGUAGAAGGCCGAGCAG [Eternabot (L2) Solution 84] (Eterna round: R97, puzzle: Exclusion 3) )
Result: 26.7

Task: # get_value(readout='apparent KD of MS2 coat protein', item= AGCUGUGGCCGAGGAUAUGACAUGAGGAUCACCCAUGUACAUAAUUAGGCCUGGUAACAGGCUCGUCAGAAGGCGGUCUCAGCA [Eli eng2 - 007] (Eterna round: R96, puzzle: Exclusion NG 2) )
Result: 12.3

Task: # get_value(readout='apparent KD of MS2 coat protein', item= ACUGGUCGAGGAUAUACAAUCGUGCUUCGGCACGUAAGGUCACAUGAGGAUCACCCAUGUAGAAGGCGACCAGU [E2/2-A3] (Eterna round: R97, puzzle: Exclusion 2) )
Result: 226

Task: # get_value(readout='apparent KD of MS2 coat protein', item= AAACCCUCCGUAAGGAUAUGCGCAGGUAAACCGCUGUAGAAGGUACAUGAGGAUCACCCAUGUUGGACCGUGGA [Eternabot (Original) Solution 35] (Eterna round: R97, puzzle: Brourd's mod of Exclusion 4) )
Result: 36

Task: # get_value(readout='apparent KD of MS2 coat protein', item= GCACUGACAGGAUAUACAUGAGGAUCACCCAUGUGACCCUUAUAGUACUCGCGUACUAGUAGAAGGGUCUGUGC [Omei Ex3 Model Bachelor's Dilema v33] (Eterna round: R97, puzzle: Exclusion 3) )
Result: 324

Task: # get_value(readout='apparent KD of MS2 coat protein', item= GCCAUGUCAGGAUAUGCUUCAAAGCACGUACAGAGCUUGAAGUAGAAGGGACAUGAGGAUCACCCAUGUGCCUA [Eternabot (L1) Solution 80] (Eterna round: R97, puzzle: Exclusion 4) )
Result: 40.2
